B1: FAM107A (parent)
chain: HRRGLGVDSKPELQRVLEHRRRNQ

variants of: B1; test: protein stability index of a GFP-peptide fusion (GPS, HEK-293T) (PSI 1-6); higher = more stable; conditions: c terminus: a fixed tail appended;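 further: lentivirally expressed fusions sorted by FACS into six bins by GFP to DsRed ratio, PSI derived from sequencing read proportions per bin multiplied by bin number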
Listed here: items and their measured protein stability index.
API note: the answer field is a bare number with no unit suffix.

E12C: 4.11

Task item: Given the variant `E12L` , write its reported protein stability index.
Reply: 4.02

Task item: Given the variant `R3C` , write its reported protein stability index.
Reply: 3.97
